Data origin: BigSolDB 2.1

Listing: solubility (mole fraction) of selected molecules
Settings: in 2-butanone, 308 K
Give only the figure.

Query :: Report solubility (mole fraction) for c1ccc2cc3ccccc3cc2c1
Result :: 0.00712

The record that follows has no solubility (mole fraction) shown yet.
Query :: Report solubility (mole fraction) for O=C1c2ccccc2C(=O)c2ccccc21
Result :: 0.00075

* * *

Details: in 2-butanone, 318 K
value-type: solubility (mole fraction)
Give only the figure.

Query :: Report solubility (mole fraction) for c1ccc2cc3ccccc3cc2c1
Result :: 0.0134

The record that follows has no solubility (mole fraction) shown yet.
Query :: Report solubility (mole fraction) for O=C1c2ccccc2C(=O)c2ccccc21
Result :: 0.001

* * *

Conditions: in isopropanol, 303 K
Listing: solubility (mole fraction) of selected molecules
Give only the figure.

Query :: Report solubility (mole fraction) for c1ccc2cc3ccccc3cc2c1
Result :: 0.00044

Query :: Report solubility (mole fraction) for O=C1c2ccccc2C(=O)c2ccccc21
Result :: 0.0001

* * *

Conditions: in acetonitrile, 318 K
Listing: solubility (mole fraction) of selected compounds
Give only the figure.

Query :: Report solubility (mole fraction) for c1ccc2cc3ccccc3cc2c1
Result :: 0.0027

Others:
Query :: Report solubility (mole fraction) for O=C1c2ccccc2C(=O)c2ccccc21
Result :: 0.00048

* * *

Conditions: in acetonitrile, 298 K
value-type: solubility (mole fraction)
Give only the figure.

Query :: Report solubility (mole fraction) for O=C1c2ccccc2C(=O)c2ccccc21
Result :: 0.00022

Query :: Report solubility (mole fraction) for c1ccc2cc3ccccc3cc2c1
Result :: 0.00066

* * *

Conditions: in isopropanol, 318 K
value-type: solubility (mole fraction)
Give only the figure.

Query :: Report solubility (mole fraction) for O=C1c2ccccc2C(=O)c2ccccc21
Result :: 0.00018

The record that follows has no solubility (mole fraction) shown yet.
Query :: Report solubility (mole fraction) for c1ccc2cc3ccccc3cc2c1
Result :: 0.00111

* * *

Listing: solubility (mole fraction) of selected molecules
Details: in isopropanol, 298 K
Give only the figure.

Query :: Report solubility (mole fraction) for O=C1c2ccccc2C(=O)c2ccccc21
Result :: 8e-05

The record that follows has no solubility (mole fraction) shown yet.
Query :: Report solubility (mole fraction) for c1ccc2cc3ccccc3cc2c1
Result :: 0.00034

* * *

Conditions: in acetonitrile, 308 K
value-type: solubility (mole fraction)

Query :: Report solubility (mole fraction) for O=C1c2ccccc2C(=O)c2ccccc21
Result :: 0.00032

The record that follows has no solubility (mole fraction) shown yet.
Query :: Report solubility (mole fraction) for c1ccc2cc3ccccc3cc2c1
Result :: 0.00135

* * *

Details: in acetonitrile, 303 K
value-type: solubility (mole fraction)
Give only the figure.

Query :: Report solubility (mole fraction) for O=C1c2ccccc2C(=O)c2ccccc21
Result :: 0.00026

Others:
Query :: Report solubility (mole fraction) for c1ccc2cc3ccccc3cc2c1
Result :: 0.00093

* * *

Listing: solubility (mole fraction) of selected compounds
Conditions: in 2-butanone, 298 K
Give only the figure.

Query :: Report solubility (mole fraction) for c1ccc2cc3ccccc3cc2c1
Result :: 0.00477

The record that follows has no solubility (mole fraction) shown yet.
Query :: Report solubility (mole fraction) for O=C1c2ccccc2C(=O)c2ccccc21
Result :: 0.00054
